Assignment: determine reported DC50 for the given molecules.
measured.on: IRAK-4 (Homo sapiens, UniProt Q9NWZ3)
Sequence (Q9NWZ3 whole entry): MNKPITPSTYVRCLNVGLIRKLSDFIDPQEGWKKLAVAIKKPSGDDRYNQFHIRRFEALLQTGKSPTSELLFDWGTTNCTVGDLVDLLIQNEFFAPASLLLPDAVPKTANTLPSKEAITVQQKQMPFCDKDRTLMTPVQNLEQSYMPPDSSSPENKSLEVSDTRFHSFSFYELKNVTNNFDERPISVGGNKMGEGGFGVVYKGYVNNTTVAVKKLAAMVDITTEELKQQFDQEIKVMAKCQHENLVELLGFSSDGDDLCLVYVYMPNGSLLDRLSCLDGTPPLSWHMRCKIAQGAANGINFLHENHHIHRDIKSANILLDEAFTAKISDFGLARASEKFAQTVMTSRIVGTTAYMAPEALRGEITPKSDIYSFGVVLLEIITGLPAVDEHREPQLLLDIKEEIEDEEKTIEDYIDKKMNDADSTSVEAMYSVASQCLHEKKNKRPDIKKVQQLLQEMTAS
protocol.text: IRAK-4 ELISA, PBMC degradation
Assay type: cell-based
Set-up: endogenous in cells; host or cells: PBMC
test.parameters: treated overnight
Method: Reagents: Human IRAK-4 Matched Antibody Pair Kit (Abcam ab218182) and ELISA Accessory Pack (Abcam ab210905). Cell Treatment and Lysis: 1. OCI-Ly10: 200,000 cells are seeded at 1×10^6/ml in 96-well U-bottom plates 200 ul per well, treated with compound the same day. Incubate overnight. 2. PBMC: 800,000 cells are seeded at 2×10^6/ml in 96-well U-bottom deep-well plates, 400 ul per well, treated with compound the same day. […] Cell lysate is collected and analyzed by ELISA for IRAK-4 levels.

Sample CC(C)(C)Oc1nc2nn(C3CCN(CC4(F)CN(c5ccc6c(c5)C(=O)N(C5CCC(=O)NC5=O)C6=O)C4)CC3)cc2cc1NC(=O)c1cnn2cccnc12 (centres unmarked) — what was its DC50?
1 to 5 nM

Sample CN(C1CN(c2ccc3c(c2)CN(C2CCC(=O)NC2=O)C3=O)C1)[C@H]1CC[C@H](n2cc3cc(NC(=O)c4cnn5cccnc45)c(OCC4CC4)cc3n2)CC1 (some centres unmarked) — what was its DC50?
< 1 nM

Sample O=C1CCC(N2Cc3cc(OCCN4CCC(n5cc6cc(NC(=O)c7cnn8cccnc78)c(OCC7CC7)cc6n5)CC4)ccc3C2=O)C(=O)N1 (centres unmarked) — what was its DC50?
1 to 5 nM

Sample CC(C)Oc1cc2c(cc1NC(=O)c1cnn3cccnc13)CN(C1CCN(CC3CCC4(CC3)CN(c3ccc5c(c3)C(=O)N(C3CCC(=O)NC3=O)C5=O)C4)CC1)C2=O (centres unmarked) — what was its DC50?
< 1 nM

Sample CC(C)Oc1cc2c(cc1NC(=O)c1cnn3cccnc13)CN([C@H]1CC[C@H](N(C)C3CN(c4ccc5c(c4F)CN(C4CCC(=O)NC4=O)C5=O)C3)CC1)C2=O (some centres unmarked) — what was its DC50?
1 to 5 nM

* * *

measured.on: IRAK-4 (Homo sapiens)
protocol.text: IRAK-4 ELISA, PBMC degradation
Format: cell-based
Set-up: endogenous in cells; host or cells: PBMC
test.parameters: treated overnight
endpoint.name: DC50

Sample COc1cc2nn(C3CCN(CC4CN(c5ccc6c(c5)C(=O)N(C5CCC(=O)NC5=O)C6=O)C4)CC3)cc2cc1NC(=O)c1cnn2cccnc12 (stereo not drawn) — what was its DC50?
< 1 nM

Sample O=C1CCC(N2C(=O)c3ccc(N4CCC5(CCC(CN6CCC(n7cc8cc(NC(=O)c9cnn%10cccnc9%10)c(OCC9CC9)cc8n7)CC6)CC5)CC4)cc3C2=O)C(=O)N1 (stereo not drawn) — what was its DC50?
1 to 5 nM

Sample O=C1CCC(N2C(=O)c3ccc(N4CC(N(CC(F)(F)F)C5CCC(n6cc7cc(NC(=O)c8cnn9cccnc89)c(OCC8CC8)cc7n6)CC5)C4)cc3C2=O)C(=O)N1 (stereo not drawn) — what was its DC50?
≥ 10 nM

Sample O=C1CCC(N2C(=O)c3ccc(N4CCC(CN5CCC(N6Cc7cc(NC(=O)c8cnn9cccnc89)c(N8CCC(N9CCC9)CC8)cc7C6=O)CC5)CC4)cc3C2=O)C(=O)N1 (stereo not drawn) — what was its DC50?
1 to 5 nM

Sample Cn1c(=O)n(C2CCC(=O)NC2=O)c2cccc(N3CC(F)(CN4CCC(n5cc6cc(NC(=O)c7cnn8cccnc78)c(OCC7CC7)cc6n5)CC4)C3)c21 (stereo not drawn) — what was its DC50?
< 1 nM

Sample CC(C)Oc1cc2nn([C@H]3CC[C@H](N(C)CC4(F)CN(c5ccc6c(c5)C(=O)N(C5CCC(=O)NC5=O)C6=O)C4)CC3)cc2cc1NC(=O)c1cnn2cccnc12 (stereo partly drawn) — what was its DC50?
1 to 5 nM

Sample CC(C)Oc1cc2nn(C3CCN(CC4(F)CN(c5ccc6c(c5)C(=O)N(C5CCC(=O)NC5=O)C6=O)C4)CC3)cc2cc1NC(=O)c1cnn2cccnc12 (stereo not drawn) — what was its DC50?
1 to 5 nM

Sample CC(C)Oc1cc2c(cc1NC(=O)c1cnn3cccnc13)CN(C[C@@H](F)C1CN(CC3CCN(c4ccc5c(c4)C(=O)N(C4CCC(=O)NC4=O)C5=O)CC3)C1)C2=O (stereo partly drawn) — what was its DC50?
1 to 5 nM

Sample O=C1CCC(N2C(=O)c3ccc(N4CC(F)(CN5CCC(n6cc7cc(NC(=O)c8cnn9ccc(N%10C[C@H]%11C[C@@H]%10CO%11)nc89)c(C(F)F)cc7n6)CC5)C4)cc3C2=O)C(=O)N1 (stereo partly drawn) — what was its DC50?
5 to 10 nM

Sample COc1cc2nn(C3CCN(CC4(F)CN(c5ccc6c(c5)C(=O)N(C5CCC(=O)NC5=O)C6=O)C4)CC3)cc2cc1NC(=O)c1cnn2ccc(C3C[C@H]4C[C@@H]3CO4)nc12 (stereo partly drawn) — what was its DC50?
1 to 5 nM

Sample CC(C)Oc1cc2c(cc1NC(=O)c1cnn3cccnc13)CN(C1CCN(C(C)(C)C3CN(c4ccc5c(c4)C(=O)N(C4CCC(=O)NC4=O)C5=O)C3)CC1)C2=O (stereo not drawn) — what was its DC50?
1 to 5 nM

Sample COc1c(N2CC(F)(CN3CCC(n4cc5cc(NC(=O)c6cnn7cccnc67)c(OCC6CC6)cc5n4)CC3)C2)ccc2c1C(=O)N(C1CCC(=O)NC1=O)C2=O (stereo not drawn) — what was its DC50?
5 to 10 nM

Sample O=C1CCC(N2C(=O)c3ccc(N4CC(F)(CN5CCC(N6Cc7cc(NC(=O)c8cnn9cccnc89)c(OC8CCC8)cc7C6=O)CC5)C4)cc3C2=O)C(=O)N1 (stereo not drawn) — what was its DC50?
1 to 5 nM

Sample CC(C)Oc1cc2c(cc1NC(=O)c1cnn3cccnc13)CN([C@H]1CC[C@@H](N3CC4(CN(c5ccc6c(c5)CN(C5CCC(=O)NC5=O)C6=O)C4)C3)CC1)C2=O (stereo partly drawn) — what was its DC50?
< 1 nM

Sample C=Nc1c(C(=O)Nc2cc3cn(C4CCN(CC5(F)CN(c6cccc7c6n(C)c(=O)n7C6CCC(=O)NC6=O)C5)CC4)nc3cc2C2CC2)cnn1/C=C\C (stereo not drawn) — what was its DC50?
< 1 nM

Sample Cn1c(=O)n(C2CCC(=O)NC2=O)c2cccc(N3CC(CN4CCC(n5cc6cc(NC(=O)c7cnn8cccnc78)c(C7CC7)cc6n5)CC4)C3)c21 (stereo not drawn) — what was its DC50?
< 1 nM

Sample O=C1CCC(N2C(=O)c3ccc(N4CC(CN5CCC(n6cc7cc(NC(=O)c8cnn9cccnc89)c(OC8CCC8)cc7n6)CC5)C4)cc3C2=O)C(=O)N1 (stereo not drawn) — what was its DC50?
< 1 nM

Sample CC(C)Oc1cc2nn(C3CCN(CC4CCN(c5ccc6c(c5)C(=O)N(C5CCC(=O)NC5=O)C6=O)CC4)CC3)cc2cc1NC(=O)c1cnn2cccnc12 (stereo not drawn) — what was its DC50?
< 1 nM

Sample COc1cc(N2CC(N(C)[C@H]3CC[C@H](N4Cc5cc(NC(=O)c6cnn7cccnc67)c(OC(C)C)cc5C4=O)CC3)C2)cc2c1C(=O)N(C1CCC(=O)NC1=O)C2=O (stereo partly drawn) — what was its DC50?
1 to 5 nM

Sample O=C1CCC(N2Cc3cc(F)c(N4CC(F)(CN5CCC(n6cc7cc(NC(=O)c8cnn9cccnc89)c(OCC8CC8)cc7n6)CC5)C4)cc3C2=O)C(=O)N1 (stereo not drawn) — what was its DC50?
1 to 5 nM

Sample O=C1CCC(NC(=O)c2ccc(N3CCC(CN4CCC(N5Cc6cc(NC(=O)c7cnn8cccnc78)c(OCC(F)F)cc6C5=O)CC4)CC3)cc2F)C(=O)N1 (stereo not drawn) — what was its DC50?
5 to 10 nM

* * *

measured.on: IRAK-4 (Homo sapiens, UniProt Q9NWZ3)
protocol.text: IRAK-4 ELISA, PBMC degradation
Format: cell-based
Set-up: endogenous in cells; host or cells: PBMC
test.parameters: treated overnight
endpoint.name: Dmax

Hi! What's the reported Dmax for CCN(C1CN(c2cccc3c2C(=O)N(C2CCC(=O)NC2=O)C3=O)C1)[C@H]1CC[C@H](n2cc3cc(NC(=O)c4cnn5cccnc45)c(OC(C)C)cc3n2)CC1 (some centres unmarked) on IRAK-4 (Homo sapiens, UniProt Q9NWZ3)?
80 to 90%

Hi! What's the reported Dmax for CN(C1CN(c2ccc3c(c2F)CN(C2CCC(=O)NC2=O)C3=O)C1)[C@H]1CC[C@H](n2cc3cc(NC(=O)c4cnn5cccnc45)c(OCC4CC4)cc3n2)CC1 (some centres unmarked) on IRAK-4 (Homo sapiens, UniProt Q9NWZ3)?
≥ 90%

Hi! What's the reported Dmax for COc1cc2nn([C@H]3CC[C@H](OC4CN(c5ccc6c(c5)C(=O)N(C5CCC(=O)NC5=O)C6=O)C4)CC3)cc2cc1NC(=O)c1cnn2cccnc12 (some centres unmarked) on IRAK-4 (Homo sapiens, UniProt Q9NWZ3)?
≥ 90%

Hi! What's the reported Dmax for O=C1CCC(N2C(=O)c3ccc(N4CCN(CCOC[C@H](F)CN5Cc6cc(NC(=O)c7cnn8cccnc78)c(N7CCOCC7)cc6C5=O)CC4)cc3C2=O)C(=O)N1 (some centres unmarked) on IRAK-4 (Homo sapiens, UniProt Q9NWZ3)?
≥ 90%

Hi! What's the reported Dmax for CC(C)Oc1nc2c(cc1NC(=O)c1cnn3cccnc13)CN(C1CCN(CCc3ccc4c(c3)CN(C3CCC(=O)NC3=O)C4=O)CC1)C2=O (centres unmarked) on IRAK-4 (Homo sapiens, UniProt Q9NWZ3)?
≥ 90%

Hi! What's the reported Dmax for CC(C)Oc1cc2c(cc1NC(=O)c1cnn3ccc(N4CCOCC4)nc13)CN(C1CCC(N(C)C3CN(c4ccc5c(c4)CN(C4CCC(=O)NC4=O)C5=O)C3)CC1)C2=O (centres unmarked) on IRAK-4 (Homo sapiens, UniProt Q9NWZ3)?
< 70%

Hi! What's the reported Dmax for O=C1CCC(N2C(=O)c3ccc(N4CC(CN5CCC(N6Cc7cc(NC(=O)c8cnn9cccnc89)c(OC8CC8)cc7C6=O)CC5)C4)cc3C2=O)C(=O)N1 (centres unmarked) on IRAK-4 (Homo sapiens, UniProt Q9NWZ3)?
≥ 90%

Hi! What's the reported Dmax for O=C1CCC(N2Cc3cc(N4CCC(F)(CN5CCC(n6cc7cc(NC(=O)c8cnn9cccnc89)c(OCC8CC8)cc7n6)CC5)CC4)ccc3C2=O)C(=O)N1 (centres unmarked) on IRAK-4 (Homo sapiens, UniProt Q9NWZ3)?
80 to 90%

Hi! What's the reported Dmax for O=C1CCC(NC(=O)c2ccc(N3CC(F)(CN4CCC(n5cc6cc(NC(=O)c7cnn8cccnc78)c(OCC7CC7)cc6n5)CC4)C3)cc2F)C(=O)N1 (centres unmarked) on IRAK-4 (Homo sapiens, UniProt Q9NWZ3)?
≥ 90%

Hi! What's the reported Dmax for O=C1CCC(NC(=O)c2cc(N3CC(CN4CCC(n5cc6cc(NC(=O)c7cnn8cccnc78)c(OCC7CC7)cc6n5)CC4)C3)ccc2F)C(=O)N1 (centres unmarked) on IRAK-4 (Homo sapiens, UniProt Q9NWZ3)?
70 to 80%

Hi! What's the reported Dmax for CC(C)Oc1cc2c(cc1NC(=O)c1cnn3cccnc13)CN(C1CCN(CC3CCN(c4ccc(C(=O)NC5CCC(=O)NC5=O)c(F)c4)CC3)CC1)C2=O (centres unmarked) on IRAK-4 (Homo sapiens, UniProt Q9NWZ3)?
≥ 90%
